Give inhibition at 25 µM for every item shown.
TESTED_SYSTEM: Mcl-1 (Homo sapiens)
Sequence (Q07820 whole entry, species assumed): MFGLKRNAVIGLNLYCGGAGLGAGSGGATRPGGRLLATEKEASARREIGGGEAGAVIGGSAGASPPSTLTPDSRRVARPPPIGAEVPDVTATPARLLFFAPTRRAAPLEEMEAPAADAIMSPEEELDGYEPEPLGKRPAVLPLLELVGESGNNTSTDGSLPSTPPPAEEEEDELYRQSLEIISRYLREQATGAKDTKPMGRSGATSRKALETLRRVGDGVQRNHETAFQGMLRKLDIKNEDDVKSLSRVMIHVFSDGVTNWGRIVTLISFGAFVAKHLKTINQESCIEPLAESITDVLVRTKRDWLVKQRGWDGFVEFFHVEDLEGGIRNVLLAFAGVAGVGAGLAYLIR
EXPERIMENT_SUMMARY: Inhibition of Mcl-1 (disruption of Mcl-1/Bim interaction)
Format: binding
TEST_CONTEXT: compound at 25 μM
Please state the figure in %; there is no need to write the unit.

Input: Given the compound CN(C)C(=O)c1cccc(-c2ccc(S(=O)(=O)NC(=O)c3ccc(CN4C(=O)C(c5ccc(F)cc5F)=C(c5ccc(F)cc5F)C4=O)cc3)cc2)c1 [SZ34TA42] , what is its reported inhibition at 25 µM?
Output: 49

Input: Give the measured inhibition at 25 µM of O=C(NS(=O)(=O)c1ccc(CN(CCSc2ccccc2)Cc2ccc3c(c2)OCO3)cc1)c1ccc(OC(F)(F)F)cc1 [SZ31TA8] .
Output: 61.2

Input: What value of measured inhibition at 25 µM is listed for O=C(NS(=O)(=O)c1ccc(CN(CCSc2ccccc2)Cc2c(F)cccc2Cl)cc1)c1ccc(-c2ccccn2)cc1 [SZ15TA25] ?
Output: 77.2

Input: Which measured inhibition at 25 µM value corresponds to COc1cccc(CN(CCSc2ccccc2)Cc2ccc(S(=O)(=O)NC(=O)c3ccc(OC(F)(F)F)cc3)cc2)c1 [SZ17TA8] ?
Output: 60.5

Input: Any idea what inhibition at 25 µM was measured for COc1cc2c(cc1OC)C(c1ccccc1)N(Cc1ccc(S(=O)(=O)NC(=O)c3ccc(-c4ccc(F)cc4)cc3)cc1)CC2 (stereo not drawn) [SZ8TA14] ?
Output: 35.2

Input: Reported inhibition at 25 µM for COc1cc2c(cc1OC)C(c1ccccc1)N(Cc1ccc(S(=O)(=O)NC(=O)CCCN3C(=O)C(c4ccc(F)cc4F)=C(c4ccc(F)cc4F)C3=O)cc1)CC2 (stereo not drawn) [SZ8TA20] : what is it?
Output: 23.5

Input: Please look up its inhibition at 25 µM: CC1(C)CCN(c2ccc(C(=O)NS(=O)(=O)c3ccc(CN(CCSc4ccccc4)Cc4ccc(S(N)(=O)=O)cc4)cc3)cc2)CC1 [SZ10TA2]
Output: 41.7

Input: Quick one: inhibition at 25 µM of Cn1cc(C(=O)C2CCCCC2)c2cc(C(=O)NS(=O)(=O)c3ccc(-c4ccc(C(C)(C)C)cc4)cc3)ccc21 [SZ11TA40] ?
Output: 74

Input: Using the record for COc1cc(OC)cc(C(=O)NS(=O)(=O)c2ccc(CN(CCSc3ccccc3)Cc3ccc(S(=O)(=O)N=[N+]=[N-])cc3)cc2)c1 [SZ9TA5] , report its inhibition at 25 µM.
Output: 50

Input: Please report the recorded inhibition at 25 µM for [N-]=[N+]=NS(=O)(=O)c1ccc(CN(CCSc2ccccc2)Cc2ccc(S(=O)(=O)NC(=O)c3ccc(-c4ccccn4)cc3)cc2)cc1 [SZ9TA25] .
Output: 43.1

Input: Reported inhibition at 25 µM, compound CC1(C)CCN(c2ccc(C(=O)NS(=O)(=O)c3ccc4ccc(S(=O)(=O)NCCSc5ccccc5)cc4c3)cc2)CC1 [SZ7TA2] : ____
Output: 49.6

Input: Can you look up the measured inhibition at 25 µM of COc1ccc(Cc2ccc(C(=O)NS(=O)(=O)c3ccc(CN(CCSc4ccccc4)Cc4ccc5c(c4)OCO5)cc3)cc2)c(OC)c1OC [SZ31TA24] for me?
Output: 59.9

====

Field: pIC50. Provide a value for each of the molecules that follow.
TESTED_SYSTEM: Mcl-1 (Homo sapiens)
EXPERIMENT_SUMMARY: Inhibition of Mcl-1 (disruption of Mcl-1/Bim interaction)
In plain terms, pIC50 is the concentration in mol/L turned into minus its base-10 logarithm.

Input: So what's the measured pIC50 for this one? COc1cc(OC)cc(C(=O)NS(=O)(=O)c2ccc(CN(CCSc3ccccc3)Cc3ccc(S(=O)(=O)N=[N+]=[N-])cc3)cc2)c1
Output: 5.09

Input: # input molecule: COc1cccc(CN(CCSc2ccccc2)Cc2ccc(S(=O)(=O)NC(=O)c3ccc(OC(F)(F)F)cc3)cc2)c1 ; wanted: its pIC50
Output: 5.08

Input: For the molecule shown here, Cc1nc(-c2ccccc2)sc1C(=O)NS(=O)(=O)c1ccc(CN(CCSc2ccccc2)Cc2ccc3c(c2)OCO3)cc1 , give the reported pIC50.
Output: 5.03

Input: // returns reported pIC50 for input O=C(NS(=O)(=O)c1ccc(CN(CCSc2ccccc2)Cc2c(F)cccc2Cl)cc1)c1ccc(CCc2ccccn2)cc1
Output: 4.69

Input: Given O=C(NS(=O)(=O)c1ccc(-c2ccc(C(F)(F)F)cc2)cc1)c1cccc(NCCc2ccccc2)c1 , state its recorded pIC50.
Output: 4.50

Input: Requested field: pIC50. Item: CC1(C)CCN(c2ccc(C(=O)NS(=O)(=O)c3ccc4ccc(S(=O)(=O)NCCSc5ccccc5)cc4c3)cc2)CC1
Output: 4.77

Input: Which pIC50 reading was recorded for the molecule O=C(NS(=O)(=O)c1ccc(NCCSc2ccccc2)c([N+](=O)[O-])c1)c1ccc(CCc2ccccn2)cc1 ?
Output: 4.22

Input: Which pIC50 is listed for COc1ccc(Cc2ccc(C(=O)NS(=O)(=O)c3ccc(CN(CCSc4ccccc4)Cc4ccc5c(c4)OCO5)cc3)cc2)c(OC)c1OC ?
Output: 4.70

Input: What value of measured pIC50 is listed for O=C(NS(=O)(=O)c1ccc(CNc2cccc([N+](=O)[O-])c2)cc1)c1ccc(CN2C(=O)C(c3ccc(F)cc3F)=C(c3ccc(F)cc3F)C2=O)cc1 ?
Output: 4.87

Input: What does the record list as pIC50 for COc1cccc(CN(CCSc2ccccc2)Cc2ccc(S(=O)(=O)NC(=O)c3sc(-c4ccccc4)nc3C)cc2)c1 ?
Output: 5.07

Input: If you can, please state the reported pIC50 value of O=C(NS(=O)(=O)c1ccc(NCCSc2ccccc2)c([N+](=O)[O-])c1)c1ccc2c(ccn2Cc2ccc(C(F)(F)F)cc2C(F)(F)F)c1 .
Output: 4.58

Input: pIC50 for O=C(NS(=O)(=O)c1ccc(CN(CCSc2ccccc2)Cc2c(F)cccc2Cl)cc1)c1ccc(-c2ccccn2)cc1 ?
Output: 4.82

Input: # get_value(readout='pIC50', item= O=C(NS(=O)(=O)c1ccc(CN(CCSc2ccccc2)Cc2ccc3c(c2)OCO3)cc1)c1ccc(OC(F)(F)F)cc1 )
Output: 5.23

Input: Bench note: what pIC50 did COc1cccc(CN(CCSc2ccccc2)Cc2ccc(S(=O)(=O)NC(=O)c3cccc4ccccc34)cc2)c1 show?
Output: 4.70

====

TESTED_SYSTEM: Mcl-1 (Homo sapiens)
EXPERIMENT_SUMMARY: Inhibition of Mcl-1 (disruption of Mcl-1/Bim interaction)
Type: binding
TEST_CONTEXT: compound at 25 μM
Assign % Inhibition (25 μM) Mcl-1 to each entry below.
Please respond with the number in % and leave the unit unwritten.

Input: State the recorded % Inhibition (25 μM) Mcl-1 for this entry: O=C(NS(=O)(=O)c1ccc(-c2ccc(Oc3ccccc3)cc2)cc1)c1cccc2ccccc12
Output: 28.6

Input: Consider the compound COc1cc2c(cc1OC)C(c1ccccc1)N(Cc1ccc(S(=O)(=O)NC(=O)c3ccc(Cc4ccc(OC)c(OC)c4OC)cc3)cc1)CC2 (stereo not shown) and give its measured % Inhibition (25 μM) Mcl-1.
Output: 43.6

Input: I am curious: what % Inhibition (25 μM) Mcl-1 value has been reported for COc1cccc(CN(CCSc2ccccc2)Cc2ccc(S(=O)(=O)NC(=O)c3ccc(-c4ccc(F)cc4)cc3)cc2)c1 ?
Output: 73.9

Input: Which % Inhibition (25 μM) Mcl-1 is listed for NS(=O)(=O)c1ccc(CN(CCSc2ccccc2)Cc2ccc(S(=O)(=O)NC(=O)c3ccc(-c4ccccn4)cc3)cc2)cc1 ?
Output: 43.9

Input: Which measured % Inhibition (25 μM) Mcl-1 value corresponds to Cc1nc(-c2ccccc2)sc1C(=O)NS(=O)(=O)c1ccc(-c2ccc(Oc3ccccc3)cc2)cc1 ?
Output: 18.8

Input: Look up % Inhibition (25 μM) Mcl-1: NS(=O)(=O)c1ccc(CN(CCSc2ccccc2)Cc2ccc(S(=O)(=O)NC(=O)c3ccc4oc(-c5ccccc5)cc4c3)cc2)cc1
Output: 2.8

====

For each entry below, report its % Inhibition (50 μM) Bcl-XL value.
TESTED_SYSTEM: Bcl-XL (Homo sapiens, UniProt Q07817)
Sequence (Q07817 whole entry, species assumed): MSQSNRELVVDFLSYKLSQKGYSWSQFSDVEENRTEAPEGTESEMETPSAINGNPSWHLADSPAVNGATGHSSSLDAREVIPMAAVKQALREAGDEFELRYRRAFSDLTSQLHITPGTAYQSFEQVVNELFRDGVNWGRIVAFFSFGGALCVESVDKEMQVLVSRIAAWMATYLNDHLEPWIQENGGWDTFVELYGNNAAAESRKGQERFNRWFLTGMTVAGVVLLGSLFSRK
EXPERIMENT_SUMMARY: Inhibition of Bcl-XL (disruption of Bcl-XL/Bim interaction)
Format: binding
TEST_CONTEXT: compound at 50 μM

Input: Quick check: % Inhibition (50 μM) Bcl-XL of O=C(NS(=O)(=O)CCN(CCSc1ccccc1)Cc1ccc2c(c1)OCO2)c1ccc2c(ccn2Cc2ccc(C(F)(F)F)cc2C(F)(F)F)c1 ?
Output: <2.0%

Input: // returns reported % Inhibition (50 μM) Bcl-XL for input COc1cccc(CN(CCSc2ccccc2)Cc2ccc(S(=O)(=O)NC(=O)c3ccc4c(c3)c(C(=O)c3cccs3)cn4C)cc2)c1
Output: <2.0%

Input: What does the record list as % Inhibition (50 μM) Bcl-XL for NS(=O)(=O)c1ccc(CN(CCSc2ccccc2)Cc2ccc(S(=O)(=O)NC(=O)c3cccc(NCCc4ccccc4)c3)cc2)cc1 ?
Output: 20.6%
